measurement.target: tyrosinase
condition.set: mean ± SEM of three parallel measurements
// classify: if (IC50 < 20 mM) rule met else rule not met

O=C1CSC(=NN2CCOCC2)N1c1ccccc1 [Compound 2]; rule not met
O=C1C(=Cc2nccs2)SC(=NN2CCOCC2)N1c1ccccc1 [Compound 20]; rule not met
O=C1C(=Cc2ccncc2)SC(=NN2CCOCC2)N1c1ccccc1 [Compound 23]; rule met
O=C1C(=Cc2ccco2)SC(=NN2CCOCC2)N1c1ccccc1 [Compound 15]; rule met

Please examine the following record next.
QUERY: A record lists O=C1C(=Cc2ccc[nH]2)SC(=NN2CCOCC2)N1c1ccccc1 [Compound 18] . Is its IC50 below 20 mM?
RESULT: rule met
